Source: patent US9605283B2

- EXPERIMENT_DESCRIPTION: Malate dehydrogenase activity (natural substrate)
- Assay type: biochemical
- MEASUREMENT_PARAMETERS: activity measured at 50 mM malate; Table 4
MEASURED_PROPERTY: Max. specific activity, malate (µmol/mg/min)
Answers are plain numbers, in µmol/mg/min.

Query: If you can, please state the reported Max. specific activity, malate value of Ec-MdhR81A M85Q: E. coli malate dehydrogenase mutant R81A M85Q, SEQ ID No. 158 (protein, listed as Escherichia coli) MKVAVLGAAGGIGQALALLLKTQLPSGSELSLYDIAPVTPGVAVDLSHIPTAVKIKGFSGEDATPALEGADVVLISAGVAAKPGQDRSDLFNVNAGIVKNLVQQVAKTCPKACIGIITNPVNTTVAIAAEVLKKAGVYDKNKLFGVTTLDIIRSNTFVAELKGKQPGEVEVPVIGGHSGVTILPLLSQVPGVSFTEQEVADLTKRIQNAGTEVVEAKAGGGSATLSMGQAAARFGLSLVRALQGEQGVVECAYVEGDGQYARFFSQPLLLGKNGVEERKSIGTLSAFEQNALEGMLDTLKKDIALGEEFVNK .
Result: 0.57
